Provenance of the data: patent US20250283073A1

Tested on: primary human hepatocytes (PHHs)
experimental.protocol: IRES screening (Table 28), Gaussia luciferase LNP-oRNA in primary human hepatocytes (PHHs)
particulars: protein expression relative to positive control (SEQ ID NO 3282 = 1)
assay.readout: PHH AVG [Fold Change] (Fold Change)
Give bare numbers, in Fold Change.

INSERT INTO results (compound, target_or_test_system, assay_readout, units, experimental_result) VALUES
  ('CCCCCCCCC(CCCCCC)COC(=O)CCCCCCCCCN(CCCCO)CCCCCCCCCC(=O)OCC(CCCCCC)CCCCCCCC (stereo not drawn) [Lipid 21]', 'primary human hepatocytes (PHHs)', 'PHH AVG [Fold Change]', 'Fold Change', 0.1363),
  ('CCCCC(CC)C(=O)OCCCCCCCCCN(CCCCO)CCCCCCCCCOC(=O)C(CC)CCCC (stereo not drawn) [Lipid 24]', 'primary human hepatocytes (PHHs)', 'PHH AVG [Fold Change]', 'Fold Change', 0.0000246);

# input for lookup
PHH AVG [Fold Change] for CCCCCCCCC(CCCCCC)COC(=O)CCCCCN(CCCCCC(=O)OCC(CCCCCC)CCCCCCCC)CCCC(=O)OCC (stereo not drawn) [Lipid 39] ?
0.003901

###

Hi there, I'd appreciate the recorded MYO AVG [Fold Change] for every entry that follows.
System: primary human skeletal myotubes (MYOs)
experimental.protocol: IRES screening (Table 28), Gaussia luciferase LNP-oRNA in primary human skeletal myotubes (MYOs)
particulars: protein expression relative to positive control (SEQ ID NO 3282 = 1)
Give bare numbers, in Fold Change.

These solved cases illustrate the format of a correct answer.
INSERT INTO assay_data (compound, experimental_result) VALUES
  ('CCCCCCCCC(CCCCCC)C(=O)OCCCCCCCCCCCCN(CCCO)CCCCCCCCCCCCOC(=O)C(CCCCCC)CCCCCCCC (centres unmarked) [Lipid 38]', 0.07838),
  ('CCCCC(CC)C(=O)OCCCCCCCCCN(CCCCO)CCCCCCCCCOC(=O)C(CC)CCCC (centres unmarked) [Lipid 24]', 0),
  ('CCCCCCCCC(CCCCCC)C(=O)OCCCCCCN(CCCC#N)CCCCCCOC(=O)C(CCCCCC)CCCCCCCC (centres unmarked) [Lipid 35]', 0),
  ('CCCCCCC(CCCC)COC(=O)CCCCCCCN(CCCCO)CCCCCCCC(=O)OCC(CCCC)CCCCCC (centres unmarked) [Lipid 49]', 0.1952);

For the 8 compounds below, give their MYO AVG [Fold Change] values.
1. CCCCCCCCC(CCCCCC)C(=O)OCCCCCCN(CCCCCCOC(=O)C(CCCCCC)CCCCCCCC)CC(O)CC (centres unmarked) [Lipid 40]
2. CCCCCCC(CCCC)C(=O)OCCCCCCN(CCO)CCCCCCOC(=O)C(CCCC)CCCCCC (centres unmarked) [Lipid 29]
3. CCCCCCCCC(CCCCCC)C(=O)OCCCCCCCCCN(CCCCO)CCCCCCCCCOC(=O)C(CCCCCC)CCCCCCCC (centres unmarked) [Lipid 22]
4. CCCCCCCCC(CCCCCC)C(=O)OCCCCCCN(CCCCCCOC(=O)C(CCCCCC)CCCCCCCC)CCCCNC(C)=O (centres unmarked) [Lipid 36]
5. CCCCCCC(CCCC)C(=O)OCCCCCCN(CCCCO)CCCCCCOC(=O)C(CCCC)CCCCCC (centres unmarked) [Lipid 42]
6. CCCCCCCCCCCCCCCC(O)C(CO)N(CCCCCCOC(=O)C(CCCCCC)CCCCCCCC)CCCCCCOC(=O)C(CCCCCC)CCCCCCCC (centres unmarked) [Lipid 32]
7. CCCCCCCCC(CCCCCC)C(=O)OCCCCCCN(CCCCCCOC(=O)C(CCCCCC)CCCCCCCC)CCCC(=O)OCC (centres unmarked) [Lipid 34]
8. CCCCCCCCC(CCCCCC)C(=O)OCCCCCCN(CCC#N)CCCCCCOC(=O)C(CCCCCC)CCCCCCCC (centres unmarked) [Lipid 47]

1. 0.199
2. 0
3. 0.009137
4. 0
5. 0.07198
6. 0.2163
7. 0.2168
8. 0.00246

Hi! Can you tell me MYO AVG [Fold Change] for each of these compounds?
1. CCCCCCCCCCCCC(CCCCCCCCCC)C(=O)OCCCCCCN(CCCO)CCCCCCOC(=O)C(CCCCCCCCCC)CCCCCCCCCCCC (centres unmarked) [Lipid 44]
2. CCCCCCCCC(CCCCCC)C(=O)OCCCCCCCCCCCCN(CCCCO)CCCCCCCCCCCCOC(=O)C(CCCCCC)CCCCCCCC (centres unmarked) [Lipid 23]

0
0
